test: Stability in rat plasma assessed as parent compound remaining at 10 uM incubated for 60 mins by LC-MS/MS analysis
Measurement label: remaining at 1 h, 10 µM (%)
Give just the number in %; leave the unit off.

What measured remaining at 1 h, 10 µM goes with `O=C(NCCCOc1cccc([C@](O)(C(=O)OCC2CCN(Cc3ccccc3)CC2)c2ccccc2)c1)c1ccc(CNC[C@H](O)c2ccc(O)c3[nH]c(=O)ccc23)cc1` ?
67

* * *

molecular target: Muscarinic acetylcholine receptor M3 (Cavia porcellus); test: Antagonist activity at M3 receptor in male albino Dunkin-Hartley guinea pig trachea assessed as inhibition of carbachol-induced smooth muscle contraction in presence of propranolol
Ranges used to classify IC50: range 1 = under 0.8 nM, range 2 = from 0.8 nM up to 3 nM, range 3 = 3 nM and over

Class label required: O=C(c1ccc(OCc2ccc(CNC[C@H](O)c3ccc(O)c4[nH]c(=O)ccc34)cc2)cc1)N1CCC(C(=O)OC2CN3CCC2CC3)(c2ccccc2)CC1 (single isomer, unassigned)
range 2

Input `O=C(c1ccc(CCNC[C@H](O)c2ccc(O)c3[nH]c(=O)ccc23)cc1)N1CCC(c2cccc([C@](O)(C(=O)OCC3CCN(Cc4ccccc4)CC3)c3ccccc3)c2)CC1`
range 2

Try the compound `O=C(NCCCOc1cccc([C@](O)(C(=O)OCC2CCN(Cc3ccccc3)CC2)c2ccccc2)c1)c1ccc(CNC[C@H](O)c2ccc(O)c3[nH]c(=O)ccc23)cc1`
range 1

Try this compound next: O=C(NCCCOc1cccc([C@@](O)(C(=O)OCC2CCN(Cc3ccccc3)CC2)c2ccccc2)c1)c1ccc(CNCC(O)c2ccc(O)c3[nH]c(=O)ccc23)cc1 (some centres undefined)
range 3

Cool, now `O=C(NCCCNC[C@H](O)c1ccc(O)c2[nH]c(=O)ccc12)c1ccc(COc2cccc([C@](O)(C(=O)OCC3CCN(Cc4ccccc4)CC3)c3ccccc3)c2)cc1`
range 1

Next entry: O=C(NCCCCNC[C@H](O)c1ccc(O)c2[nH]c(=O)ccc12)c1ccc(CNC2(C(=O)OCC3CCN(Cc4ccccc4)CC3)CCc3ccccc32)s1 (mixture of isomers; 32)
range 2

`CCN1CCC(COC(=O)[C@](O)(c2ccccc2)c2cccc(OCCCNC(=O)c3cc(OC)c(CNC[C@H](O)c4ccc(O)c5[nH]c(=O)ccc45)cc3F)c2)CC1.O=C(O)C(F)(F)F.O=C(O)C(F)(F)F` ?
range 3

Next compound up: `O=C(NCCCNC[C@H](O)c1ccc(O)c2[nH]c(=O)ccc12)c1ccc(COc2cccc([C@@](O)(C(=O)OCC3CCN(Cc4ccccc4)CC3)c3ccccc3)c2)cc1`
range 3

* * *

experiment: in vitro; details: rat, hepatocytes
Description: Metabolic stability in rat hepatocytes assessed as clearance measured per 10^6 cells at 1 uM incubated for 90 mins by LC-MS/MS analysis
Consider the following compounds; for each one, report its hepatocyte CLint at 1.5 h, 1 µM.
Write it as a number; the unit µL/min/1e6 cells goes unstated.

Requested read-out: hepatocyte CLint at 1.5 h, 1 µM. Entry: `O=C(NCCCOc1cccc([C@](O)(C(=O)OCC2CCN(Cc3ccccc3)CC2)c2ccccc2)c1)c1ccc(CNC[C@H](O)c2ccc(O)c3[nH]c(=O)ccc23)cc1`
30

Record: `O=C(NCc1ccc(-c2cccc([C@](O)(C(=O)OCC3CCN(Cc4ccccc4)CC3)c3ccccc3)c2)s1)c1ccc(CNC[C@H](O)c2ccc(O)c3[nH]c(=O)ccc23)cc1`
50

Also `CN1CCC(COC(=O)[C@](O)(c2ccccc2)c2cccc(OCCCNC(=O)c3ccc(CNC[C@H](O)c4ccc(O)c5[nH]c(=O)ccc45)cc3)c2)CC1` , if possible.
15

`O=C(NCCCOc1cccc([C@](O)(C(=O)OC2CCN(Cc3ccccc3)CC2)c2ccccc2)c1)c1ccc(CNC[C@H](O)c2ccc(O)c3[nH]c(=O)ccc23)cc1` , same question.
64

Try the compound `O=C(NCCCOc1cccc([C@](O)(C(=O)OCC2CCN(C3CCC3)CC2)c2ccccc2)c1)c1ccc(CNC[C@H](O)c2ccc(O)c3[nH]c(=O)ccc23)cc1`
38

Same question for `CN1CCC[C@@H](OC(=O)[C@](O)(c2ccccc2)c2cccc(OCCCNC(=O)c3cccc(CNC[C@H](O)c4ccc(O)c5[nH]c(=O)ccc45)c3)c2)C1` please.
28

* * *

experiment: in vivo; conditions: male, Dunkin-Hartley, guinea pig, inhaled or intranasal, 0.3 mM
Description: Toxicity in male albino Dunkin-Hartley guinea pig model assessed as inhibition of carbachol-induced salivation at 0.3 mM, preadministered with compound for 10 mins via aerosol followed by anesthesia treatment 3 hrs post compound addition and further treated with carbachol and measured every 5 mins for 4 times
Measurement label: inhibition at 3.167 h, 300 µM (%)
Respond with the bare value in %.

State the recorded inhibition at 3.167 h, 300 µM for this entry: C[N+]1(C)[C@@H]2C[C@@H](OC(=O)C(O)(c3cccs3)c3cccs3)C[C@H]1[C@@H]1O[C@@H]12 [TIOTROPIUM BROMIDE]
77

* * *

target: Muscarinic acetylcholine receptor M3 (Cavia porcellus, UniProt Q8VH26); test: Antagonist activity at M3 receptor in male albino Dunkin-Hartley guinea pig trachea assessed as inhibition of carbachol-induced smooth muscle contraction in presence of propranolol
Sequence (Q8VH26 whole entry): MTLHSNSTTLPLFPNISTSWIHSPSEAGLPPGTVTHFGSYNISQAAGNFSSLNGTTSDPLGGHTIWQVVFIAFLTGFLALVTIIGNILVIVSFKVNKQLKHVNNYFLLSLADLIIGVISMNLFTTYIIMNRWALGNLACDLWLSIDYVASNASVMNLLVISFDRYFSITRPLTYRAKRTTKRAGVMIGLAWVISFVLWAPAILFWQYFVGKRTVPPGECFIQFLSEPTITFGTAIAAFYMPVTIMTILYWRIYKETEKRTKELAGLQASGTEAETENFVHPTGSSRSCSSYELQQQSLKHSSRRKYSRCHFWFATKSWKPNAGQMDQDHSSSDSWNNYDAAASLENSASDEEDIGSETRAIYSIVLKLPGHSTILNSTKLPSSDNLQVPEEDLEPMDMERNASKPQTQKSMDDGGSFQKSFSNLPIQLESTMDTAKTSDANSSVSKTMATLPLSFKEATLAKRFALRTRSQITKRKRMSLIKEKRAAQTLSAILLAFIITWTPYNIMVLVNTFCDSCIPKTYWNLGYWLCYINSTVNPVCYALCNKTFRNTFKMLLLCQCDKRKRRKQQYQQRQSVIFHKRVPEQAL
Measurement label: pIC50
Reminder that pIC50 means the negative base-10 logarithm of the concentration expressed in mol/L.

GET /values?readout=pIC50&system=Muscarinic acetylcholine receptor M3 (Cavia porcellus, UniProt Q8VH26)&item= O=C(c1ccc(OCc2ccc(CNC[C@H](O)c3ccc(O)c4[nH]c(=O)ccc34)cc2)cc1)N1CC(C(=O)OC2CN3CCC2CC3)(c2ccccc2)C1 (single isomer, unassigned)
9.00

Same thing, different compound: `COc1cc(C(=O)NCCCOc2cccc([C@](O)(C(=O)OCC3CCN(Cc4ccccc4)CC3)c3ccccc3)c2)ccc1CNC[C@H](O)c1ccc(O)c2[nH]c(=O)ccc12`
9.90

Please do the same for O=C(NCCCCNC[C@H](O)c1ccc(O)c2[nH]c(=O)ccc12)c1ccc(CNC2(C(=O)O[C@H]3CN4CCC3CC4)CCc3ccccc32)cc1 (mixture of isomers) as well.
8.50

* * *

Exercise: for every item that follows, state its recorded fraction unbound at 4 h, 5 µM.
assay: Protein binding in human plasma at 5 uM incubated for 4 hrs by LC-MS/MS analysis

Need fraction unbound at 4 h, 5 µM of O=C(NCCCOc1cccc([C@@](O)(C(=O)OCC2CCN(Cc3ccccc3)CC2)c2ccccc2)c1)c1ccc(CNCC(O)c2ccc(O)c3[nH]c(=O)ccc23)cc1 (some centres undefined) , thanks.
0.01

Same lookup for O=C(c1ccc(OCc2ccc(CNC[C@H](O)c3ccc(O)c4[nH]c(=O)ccc34)cc2)cc1)N1CCC(C(=O)OC2CN3CCC2CC3)(c2ccccc2)CC1 (single isomer, unassigned) , please.
0.02

Another compound to look at: O=C(NCCCCNC[C@H](O)c1ccc(O)c2[nH]c(=O)ccc12)c1ccc(CNC2(C(=O)OCC3CCN(Cc4ccccc4)CC3)CCc3ccccc32)s1 (mixture of isomers; 33)
0.06

For `O=C(NCCCOc1cccc([C@](O)(C(=O)OCC2CCN(Cc3ccccc3)CC2)c2ccccc2)c1)c1ccc(CNC[C@H](O)c2ccc(O)c3[nH]c(=O)ccc23)cc1` then?
0.01

* * *

experiment: in vitro; conditions: guinea pig, plasma
Description: Stability in guinea pig plasma assessed as half-life at 5 uM incubated for 120 mins by LC-MS/MS analysis
Would you kindly list half-life at 2 h, 5 µM for each of these compounds?
// return numeric value only (unit: min, not printed)

Please look up its half-life at 2 h, 5 µM: `CN1CCC[C@@H](OC(=O)[C@](O)(c2ccccc2)c2cccc(OCCCNC(=O)c3cccc(CNC[C@H](O)c4ccc(O)c5[nH]c(=O)ccc45)c3)c2)C1`
98

// query: `O=C(NCCCOc1cccc([C@](O)(C(=O)OC[C@H]2CCN(Cc3ccccc3)C2)c2ccccc2)c1)c1ccc(CNC[C@H](O)c2ccc(O)c3[nH]c(=O)ccc23)cc1`
56

Note, next up: `COc1cc(C(=O)NCCCOc2cccc([C@](O)(C(=O)O[C@@H]3CCCN(C)C3)c3ccccc3)c2)ccc1CNC[C@H](O)c1ccc(O)c2[nH]c(=O)ccc12`
112

Okay, and `O=C(NCCCOc1cccc([C@](O)(C(=O)O[C@H]2CCN(Cc3ccccc3)C2)c2ccccc2)c1)c1ccc(CNC[C@H](O)c2ccc(O)c3[nH]c(=O)ccc23)cc1` ?
12

Could you do the same for `COc1cc(C(=O)N2CCC(c3cccc([C@](O)(C(=O)OCC4CCN(Cc5ccccc5)CC4)c4ccccc4)c3)CC2)ccc1CNC[C@H](O)c1ccc(O)c2[nH]c(=O)ccc12` , please?
35

Then this compound: `O=C(NCCCOc1cccc([C@](O)(C(=O)OCC2CCN(C3CCC3)CC2)c2ccccc2)c1)c1ccc(CNC[C@H](O)c2ccc(O)c3[nH]c(=O)ccc23)cc1`
119

Then this compound: `CN1CCC[C@@H](OC(=O)[C@](O)(c2ccccc2)c2cccc(OCCCNC(=O)c3cnc(CNC[C@H](O)c4ccc(O)c5[nH]c(=O)ccc45)nc3)c2)C1.O=CO`
8

Similarly, `O=C(c1ccc(CCNC[C@H](O)c2ccc(O)c3[nH]c(=O)ccc23)cc1)N1CCC(c2cccc([C@](O)(C(=O)OCC3CCN(Cc4ccccc4)CC3)c3ccccc3)c2)CC1` ?
16

* * *

Exercise: for every item that follows, state its recorded hepatocyte CLint at 1.5 h, 1 µM.
test: in vitro; details: rat, hepatocytes
Number in µL/min/1e6 cells, nothing else.

hepatocyte CLint at 1.5 h, 1 µM lookup needed for `Cc1cc(C(=O)NCCCOc2cccc([C@](O)(C(=O)O[C@@H]3CCCN(C)C3)c3ccccc3)c2)c(C)cc1CNC[C@H](O)c1ccc(O)c2[nH]c(=O)ccc12` , thanks.
49

Input `O=C(NCCCOc1cccc([C@](O)(C(=O)OCC2CCN(C3CCCC3)CC2)c2ccccc2)c1)c1ccc(CNC[C@H](O)c2ccc(O)c3[nH]c(=O)ccc23)cc1`
51

Entry to check: `O=C(c1ccc(CCNC[C@H](O)c2ccc(O)c3[nH]c(=O)ccc23)cc1)N1CCC(c2cccc([C@](O)(C(=O)OCC3CCN(Cc4ccccc4)CC3)c3ccccc3)c2)CC1`
36

Can you handle `CN1CCC[C@@H](OC(=O)[C@](O)(c2ccccc2)c2cccc(OCCCNC(=O)c3ccc(CNC[C@H](O)c4ccc(O)c5[nH]c(=O)ccc45)c(F)c3)c2)C1.O=CO` next?
54

Similarly, `O=C(NCCCOc1cccc([C@](O)(C(=O)O[C@H]2CCN(Cc3ccccc3)C2)c2ccccc2)c1)c1ccc(CNC[C@H](O)c2ccc(O)c3[nH]c(=O)ccc23)cc1` ?
71

What about `COc1cc(C(=O)NCCCOc2cccc([C@](O)(C(=O)O[C@@H]3CCCN(C)C3)c3ccccc3)c2)c(Cl)cc1CNC[C@H](O)c1ccc(O)c2[nH]c(=O)ccc12` ?
36

Would you kindly repeat that for `CCN1CCC(COC(=O)[C@](O)(c2ccccc2)c2cccc(OCCCNC(=O)c3cc(OC)c(CNC[C@H](O)c4ccc(O)c5[nH]c(=O)ccc45)cc3F)c2)CC1.O=C(O)C(F)(F)F.O=C(O)C(F)(F)F` ?
27

`O=C(NCCCOc1cccc([C@](O)(C(=O)O[C@@H]2CCCN(Cc3ccccc3)C2)c2ccccc2)c1)c1ccc(CNC[C@H](O)c2ccc(O)c3[nH]c(=O)ccc23)cc1.O=CO` , same question.
78

// repeat for `COc1cc(C(=O)NCCCOc2cccc([C@](O)(C(=O)O[C@@H]3CCCN(C)C3)c3ccccc3)c2)ccc1CNC[C@H](O)c1ccc(O)c2[nH]c(=O)ccc12` and report
29

Now try `COc1cc(C(=O)NCCCOc2cccc([C@](O)(C(=O)OCC3CCN(CC4CC4)CC3)c3ccccc3)c2)c(F)cc1CNC[C@H](O)c1ccc(O)c2[nH]c(=O)ccc12.O=CO.O=CO` .
47

Repeat with `COc1cc(C(=O)NCCCOc2cccc([C@](O)(C(=O)OCC3CCN(Cc4ccccc4)CC3)c3ccccc3)c2)ccc1CNC[C@H](O)c1ccc(O)c2[nH]c(=O)ccc12`
60

And then `COc1cc(C(=O)NCCCOc2cccc([C@](O)(C(=O)O[C@@H]3CCCN(C)C3)c3ccccc3)c2)c(F)cc1CNC[C@H](O)c1ccc(O)c2[nH]c(=O)ccc12` , what is it?
40
